- methodDescription: soluble on expression in E. coli; label from the status in PepcDB or PDB records
experimentalEndpoint: soluble on expression in E. coli

querySequence: SNEGKELSTFCRKFEVPLRKALEKAGRLVDDPGRPRLLLTFISGRRVFVGVASASNSALWPMGIPRLKFPREAPSRSTLKLEEAWHQFIPREQWEQRLGDDMTGVDLGASPGGWTYQLVRRGMLVTAIDNGPMAESLMDTGLVQHLMADGFTWQPKQPVDWMVCDIVEKPARTTSLIETWLGEGLCREAVVNLKLPMKQRYAEVRRLLDRMEATFKARKIRVSIACKQLYHDREEVTCHLRRLDLK
result: not soluble
--
querySequence: ADTFNLAKDIHSRILSIDTHTDTPLWFKNGYSVGLRKDNMVSIPKMEEGKLDAQFLAAFIWQGKRDDASSQKAVESTTRLIQSIYDEVEQYKDFCGIALTEEDLVRLKNEGKKAFFIGIENGYAIGKDLKNIKKYKQMGVNYITLCHSYDNDICHSSTHTEDATQGLTQFGREVVKEMNRLGIMIDISHASEGTFWDVIKYSAQPIIASHSSSKALCDHDRNLTDEQLRALAKNGGVAQLCLLDAYINKKTKAASICDAVEHLDHMIKVAGIDHVGIGTDFDGGGGLQGCRGDNDLINLTIKMIEKGYTEEDLRKIWGGNLLRVMKQVQEAPLLSSKKRR
result: not soluble
--
querySequence: MGSDKIHHHHHHMNLSNDSLNKSDISPAVAQQAVGWLLEMQEGALDARRQHAWQSWLNGNSEHQRAWAHMQRVNQRLSGLSSPLAHAALGAPKSAGRRHALKLLLLLGAGSMAGWSLREQIALQPLLADYNSGVGEQRKVALSDGSRVQLNTASAVDVRFDAQQRLIKLLQGELLMSASADARPLNLLSAQGTVRASTGSSRFNLRQLDGRTQLAVFAGAIEVAPANKSGPGLMLRASQQVTFGRDAWDSVRTVDANSGAWADGMLVASRMKLSDFLAELGRYRRGRLNCDANVADLLISGSYPLADSERILDMLQLALPVRVQRFTRYWVNVQARV
result: not soluble
